Values were extracted from patent US20040077045A1.

experimental_target: T1, HLA-DR7 (DRB1*0701), purified (human)
T1 construct: mature
test_name: competition on purified HLA-DR (DRB1*0701) against biotinylated YKL (10 nM, pH 5); fluorescence assay
readout_name: IC50 (nM)

binder: ACYEFLWGPRALVETS [peptide MAGE-3 267-282 (ACYEFLWGPRALVETS)]
readout_name: IC50
quantitative_result: 1200
